Origin of values: PubChem BioAssay (NCATS)

experiment: Primary qHTS for inhibitors of nuclear receptor binding SET domain protein 2 (NSD2) in an RCH-ACV wild type WT cells (2C) (AID 1645877); settings: RCH-ACV (leukaemia line) NSD2 WT (2C) viability, CellTiter-Glo, 72 h; series mostly up to 44.9 µM; further: nearly all actives have a fitted effect of over 70% in size
Inconclusive results are not listed. Activity calls are given as the source filed them. The call rests on the fitted dose curve; in most records, active means well fitted inhibition curve with a large enough effect; inconclusive means small, poorly fitted or top-dose-only effect; inactive means no such curve, though single readings can be large or run the other way.
Pick one: 1 (yes) = active, 0 (no) = inactive

Some entries whose results are on file:
[
  {
    "COMPOUND": "CCOc1cc(N2CCC(O)CC2)ccc1Nc1ncc2c(n1)N(C1CCCC1)CCC(=O)N2C",
    "LABEL": "1 (yes)"
  },
  {
    "COMPOUND": "CC[C@]1(O)CC2CN(CCc3c([nH]c4ccccc34)[C@@](C(=O)OC)(c3cc4c(cc3OC)N(C=O)[C@H]3[C@@](O)(C(=O)OC)[C@H](OC(C)=O)[C@]5(CC)C=CCN6CC[C@]43[C@@H]65)C2)C1 (stereo not given in full)",
    "LABEL": "1 (yes)"
  },
  {
    "COMPOUND": "COc1cc(N2CCC(N3CCN(C)CC3)CC2)ccc1Nc1ncc(Cl)c(-c2c[nH]c3ccccc23)n1",
    "LABEL": "1 (yes)"
  },
  {
    "COMPOUND": "CC(O)/C=C/C1(O)C2(C)COC1(C)CC(O)C2 (stereo not given)",
    "LABEL": "0 (no)"
  }
]

Task item: // outcome(item) with item = CCCC(=O)O[C@@H]1[C@@H]2[C@@H](OC(C)=O)[C@]3(C)C(=O)[C@H]4[C@@H](OC(C)=O)C(C)(C)C[C@H]4[C@]3(C)C(=O)[C@@]2(OC(C)=O)C[C@@H]1C
Reply: 0 (no)

Task item: // outcome(item) with item = CC1(C)CC2=C3C=CC4C5(C)CCC(O)C(C)(C)C5CCC4(C)C3(C)CCC2(C)C(O)C1 (stereo not given)
Reply: 0 (no)

Task item: // outcome(item) with item = O=C(O)c1cc(I)ccc1NC(=O)[C@H](Cc1ccccc1)NCc1ccccc1
Reply: 0 (no)

Task item: // outcome(item) with item = O=C(O)/C=C/c1ccc(O)c(O[C@@H]2O[C@H](CO)[C@@H](O)[C@H](O)[C@H]2O)c1
Reply: 0 (no)

Task item: // outcome(item) with item = C=C(CCC1=C(C)[C@H]2[C@H](CC3[C@@H]4CC=C5C[C@@H](O)C[C@@H](O)[C@]5(C)C4[C@H](O)C[C@@]32C)O1)CO[C@@H]1O[C@H](CO)[C@@H](O)[C@H](O)[C@H]1O (stereo not given in full)
Reply: 1 (yes)

###

Measured Potency of individual entries
target: Glutathione peroxidase 1 (Homo sapiens); experiment: Primary qHTS Assay for Inhibitors of Recombinant Selenoprotein Glutathione Peroxidase 1 (GPX1) (AID 1845191); conditions: recombinant GPX1, GR-coupled NADPH fluorescence, 15 min; series mostly up to 48.8 µM; further: potency means the concentration at half of the fitted maximal effect; nearly all actives have a fitted effect of over 65% in size
Results filed as inconclusive are left out. Calls of active or inactive are those of the source. The call rests on the fitted dose curve; in most records, active means well fitted inhibition curve with a large enough effect; inconclusive means small, poorly fitted or top-dose-only effect; inactive means flat fitted curve, though single readings scatter.

[
  {
    "COMPOUND": "COc1ccc(CN2C(=O)C(=O)c3cc(S(=O)(=O)N4CCC[C@H]4COc4cccnc4)ccc32)cc1",
    "Potency": "22.7 µM (active)"
  },
  {
    "COMPOUND": "CO/N=C(/C(=O)N[C@@H]1C(=O)N2C(C(=O)O)=C(Cn3ccc(=N)n3CCO)CS[C@H]12)c1csc(N)n1",
    "Potency": "8.06 µM (active)"
  },
  {
    "COMPOUND": "CC(C)(C)Nc1nc(Nc2ccc(C(N)=O)cc2)cc(N)c1C#N",
    "Potency": "22.7 µM (active)"
  }
]

Task item: Could you please provide reported Potency for COc1cc2occc2c(O[C@@H]2O[C@H](CO)[C@@H](O)[C@H](O)[C@H]2O)c1CCC(=O)O ? Thanks!
Reply: 11.1 µM (active)

Task item: Could you please provide reported Potency for CNC(=S)NS(=O)(=O)c1cc(CCNC(=O)c2cc(Cl)ccc2OC)ccc1OC ? Thanks!
Reply: 12.8 µM (active)

Task item: Could you please provide reported Potency for Cn1c2ccc(F)cc2c2c(C(=O)N3CCCC3)cn(-c3ccccc3)c(=O)c21 ? Thanks!
Reply: 18 µM (active)

Task item: Could you please provide reported Potency for Cc1ccc(-c2ccc3ncc4c(c3n2)n(C2CCN(C(=O)[C@H](C)O)CC2)c(=O)n4C)cn1 ? Thanks!
Reply: 22.7 µM (active)
